Settings: in n-pentanol, 313.15 K
READOUT_NAME: solubility (mole fraction)
# output: bare number, no unit

Which solubility (mole fraction) is reported for this compound? CC(C)Oc1ccc2c(=O)c(-c3ccccc3)coc2c1
0.0125

---

Conditions: in n-butanol, 288.15 K
READOUT_NAME: solubility (mole fraction)
# output: bare number, no unit

Which solubility (mole fraction) is reported for this compound? CC(C)Oc1ccc2c(=O)c(-c3ccccc3)coc2c1
0.00294

---

Conditions: in n-propanol, 318.15 K
READOUT_NAME: solubility (mole fraction)
# output: bare number, no unit

Which solubility (mole fraction) is reported for this compound? CC(C)Oc1ccc2c(=O)c(-c3ccccc3)coc2c1
0.0113

From: BigSolDB 2.1
